- Study target: Human fibrinogen receptor (αIIbβ3) (Homo sapiens, UniProt P05106+P08514)
- Construct: Human fibrinogen receptor (αIIbβ3) was purified from outdated platelets; from tissue; host or cells: outdated human platelets
- Sequence (P08514 32-887 limits assumed): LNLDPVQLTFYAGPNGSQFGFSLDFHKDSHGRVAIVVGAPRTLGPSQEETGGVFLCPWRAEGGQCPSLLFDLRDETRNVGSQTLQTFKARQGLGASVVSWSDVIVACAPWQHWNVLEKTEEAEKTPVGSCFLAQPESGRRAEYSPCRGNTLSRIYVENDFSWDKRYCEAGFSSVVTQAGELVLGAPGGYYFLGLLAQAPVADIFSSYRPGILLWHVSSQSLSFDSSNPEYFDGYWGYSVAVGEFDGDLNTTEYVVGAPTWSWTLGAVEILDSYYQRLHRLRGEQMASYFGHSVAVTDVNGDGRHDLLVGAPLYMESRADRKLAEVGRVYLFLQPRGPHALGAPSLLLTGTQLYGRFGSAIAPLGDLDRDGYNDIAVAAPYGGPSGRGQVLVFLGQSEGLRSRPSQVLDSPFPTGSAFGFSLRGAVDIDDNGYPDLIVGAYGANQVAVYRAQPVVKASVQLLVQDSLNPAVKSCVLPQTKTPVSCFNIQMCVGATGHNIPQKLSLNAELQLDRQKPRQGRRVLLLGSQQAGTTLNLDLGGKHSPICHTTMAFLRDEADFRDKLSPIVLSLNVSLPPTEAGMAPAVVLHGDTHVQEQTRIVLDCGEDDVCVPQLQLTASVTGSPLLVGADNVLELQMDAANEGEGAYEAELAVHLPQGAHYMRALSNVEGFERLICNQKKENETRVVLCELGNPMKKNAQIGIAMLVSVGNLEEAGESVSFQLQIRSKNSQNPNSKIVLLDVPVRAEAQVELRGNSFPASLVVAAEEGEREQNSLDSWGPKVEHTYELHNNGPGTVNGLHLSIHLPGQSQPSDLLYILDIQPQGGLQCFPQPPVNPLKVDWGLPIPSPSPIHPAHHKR
- Sequence (P08514 891-1039 limits assumed): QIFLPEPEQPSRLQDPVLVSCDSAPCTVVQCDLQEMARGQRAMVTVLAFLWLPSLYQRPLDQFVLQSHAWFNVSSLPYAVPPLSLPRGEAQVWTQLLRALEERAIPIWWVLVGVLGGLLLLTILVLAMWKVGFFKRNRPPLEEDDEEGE
- Sequence (P05106 27-788): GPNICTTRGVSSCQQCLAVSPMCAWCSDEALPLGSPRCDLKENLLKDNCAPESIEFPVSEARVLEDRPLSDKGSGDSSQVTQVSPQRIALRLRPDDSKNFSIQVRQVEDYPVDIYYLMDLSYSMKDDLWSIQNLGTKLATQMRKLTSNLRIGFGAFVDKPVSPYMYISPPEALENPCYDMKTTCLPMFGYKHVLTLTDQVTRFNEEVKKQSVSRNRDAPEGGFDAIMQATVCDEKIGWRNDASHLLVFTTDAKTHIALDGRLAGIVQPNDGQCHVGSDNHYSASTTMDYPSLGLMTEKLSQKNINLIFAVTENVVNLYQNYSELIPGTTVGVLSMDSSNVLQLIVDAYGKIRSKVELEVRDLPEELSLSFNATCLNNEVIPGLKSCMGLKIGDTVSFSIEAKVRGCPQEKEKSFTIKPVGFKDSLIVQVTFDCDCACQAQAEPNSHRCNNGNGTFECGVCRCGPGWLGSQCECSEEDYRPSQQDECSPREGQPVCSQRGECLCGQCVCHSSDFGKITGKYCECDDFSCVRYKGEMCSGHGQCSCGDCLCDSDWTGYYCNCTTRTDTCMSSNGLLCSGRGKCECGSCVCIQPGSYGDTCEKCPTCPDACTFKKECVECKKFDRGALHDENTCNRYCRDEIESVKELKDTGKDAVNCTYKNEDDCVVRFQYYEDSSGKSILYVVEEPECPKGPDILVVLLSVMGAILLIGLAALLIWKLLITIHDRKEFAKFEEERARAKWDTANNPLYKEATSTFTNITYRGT
- Assay details: Purified IIb/IIIa receptor assay (solid phase receptor assay, competition with biotinylated vitronectin)
- Format: binding
- Test conditions: read-out: IIb/IIIa IC50
pIC50: −log10 of the molar value. Where a name gives a salt, the structure may show the parent alone.
Short version: pIC50 at least 6 is Condition met, less is Condition not met.

N=C(N)Nc1cccc(C(=O)NCC(=O)NC(CCS(=O)(=O)c2ccccc2C(=O)O)CC(=O)O)c1 (racemic) ... Condition met
N=C(N)Nc1cccc(C(=O)NCC(=O)NC(CC(=O)O)c2cccc(-c3ccccc3)c2)c1 (stereo not shown) ... Condition met

Q: // inclusive: pIC50 at least 6? input: N=C(N)Nc1cccc(C(=O)NCC(=O)NC(CC(=O)O)c2cc(Cl)cc(Br)c2O)c1 (racemic) [Example 233, trifluoroacetate salt, monohydrate]
Result: Condition met

Q: // inclusive: pIC50 at least 6? input: O=C(O)CC(NC(=O)CNC(=O)c1cccc(NC2=NCCCN2)c1)c1cc(Br)cc(Br)c1 (racemic) [Example 211, trifluoroacetate salt]
Result: Condition met

FYI, the data here is from patent US6831199B1.
